test: PAMPA; note: unit not given here
readout_label: PAMPA

C[C@@H](N)C(=O)OC1(Cc2ccc(Cl)cc2)CCNCC1 (stereo in doubt)
1.02(2)
O=C1NCN[C@H]1Cc1ccc(Cl)cc1 [MP-72, (S)-5-(4-chlorobenzyl)imidazolidin-4-one]
11.07(2)

Next:
[Q] Look up PAMPA for this compound: `C[C@H](N)C(=O)Nc1ccccc1-c1ccc(F)cc1`
[A] 1.6(2)
